Experiment: Stability of the compound assessed as porcine liver esterase-mediated hydrolysis measured after 1 to 24 hrs by HPLC analysis
Assay type: ADME, Sus scrofa
Conditions: pig, isolated protein; time 1-24 hrs
measurement.name: Stability

[[record]]
compound = "CC(C)=C1CC(CO)(COC(=O)C(C)(C)C)OC1=O (centres undefined)"
measurement_name = "Stability"
reported_measurement = "Stable"

[[record]]
compound = "CCCC(CCC)C(=O)OCC1(CO)CC(=C(C)C)C(=O)O1 (centres undefined)"
measurement_name = "Stability"
reported_measurement = "Stable"

[[record]]
compound = "CCCCCCC(CCCCCC)C(=O)OCC1(CO)CC(=C(C)C)C(=O)O1 (centres undefined)"
measurement_name = "Stability"
reported_measurement = "Stable"

